- ASSAY_INFO: Long-term storage stability of antibiotics in combination with fosfomycin spiked in plasma/CAMHB (−30 °C, −80 °C)
- Type: physicochemical
- EXPERIMENTAL_SETUP: plasma, combination with fosfomycin, 2 weeks at -80 °C; MQC (nominal as E14)
REPORTED_PROPERTY: Mean accuracy (%), Table S13

CC(C)(O/N=C(\C(=O)N[C@@H]1C(=O)N2C(C(=O)[O-])=C(C[n+]3ccccc3)CS[C@H]12)c1csc(N)n1)C(=O)O [Ceftazidime, ceftazidime]	101.0
C[C@@H](O)[C@H]1C(=O)N2C(C(=O)O)=C(S[C@@H]3CN[C@H](C(=O)N(C)C)C3)[C@H](C)[C@H]12 [Meropenem, meropenem]	95.0
Cn1c(N)c(NC(=O)NCCN)c[n+]1CC1=C(C(=O)O)N2C(=O)[C@@H](NC(=O)/C(=N\OC(C)(C)C(=O)[O-])c3nsc(N)n3)[C@H]2SC1 [Ceftolozane, ceftolozane]	87.7
C[C@@H]1O[C@@H]1P(=O)(O)O [Fosfomycin, fosfomycin]	94.6
NC(=O)[C@@H]1CC[C@@H]2CN1C(=O)N2OS(=O)(=O)O [Avibactam, avibactam]	100.4

* * *

- ASSAY_INFO: Long-term storage stability of antibiotics in combination with fosfomycin spiked in plasma/CAMHB (−30 °C, −80 °C)
- Format: physicochemical
- EXPERIMENTAL_SETUP: plasma, combination with fosfomycin, 2 weeks at -80 °C; MQC (nominal as E14)
REPORTED_PROPERTY: Mean accuracy (%), Table S13

C[C@H]1[C@H](NC(=O)/C(=N\OC(C)(C)C(=O)O)c2csc(N)n2)C(=O)N1S(=O)(=O)O	94.5
CCN1CCN(C(=O)N[C@@H](C(=O)N[C@@H]2C(=O)N3[C@@H]2SC(C)(C)[C@@H]3C(=O)O)c2ccccc2)C(=O)C1=O	93.0
C[C@@H](O)[C@H]1C(=O)N2C(C(=O)O)=C(S[C@@H]3CN[C@H](CNS(N)(=O)=O)C3)[C@H](C)[C@H]12	96.9
CN(C)c1cc(NC(=O)CNC(C)(C)C)c(O)c2c1C[C@H]1C[C@H]3[C@H](N(C)C)C(O)=C(C(N)=O)C(=O)[C@@]3(O)C(O)=C1C2=O	100.1
C[C@]1(Cn2ccnn2)[C@H](C(=O)O)N2C(=O)C[C@H]2S1(=O)=O	104.7
CO/N=C(\C(=O)N[C@@H]1C(=O)N2C(C(=O)[O-])=C(C[N+]3(C)CCCC3)CS[C@H]12)c1csc(N)n1 [Cefepime, cefepime]	94.3

* * *

- ASSAY_INFO: Autosampler stability at 4 °C of extracted antibiotic-spiked plasma/CAMHB samples
- EXPERIMENTAL_SETUP: plasma extracted samples, 7 h autosampler 4 °C; MQC: nominal mg/L CAZ 75, FEP 100, PIP 150, ATM 150, MEM 100, DOR 87.5, LVX 15, CEFT 125, TZB 43.75, TGC 10, AVI 15, FOF 500
REPORTED_PROPERTY: Mean accuracy (%), Table S7

Cn1c(N)c(NC(=O)NCCN)c[n+]1CC1=C(C(=O)O)N2C(=O)[C@@H](NC(=O)/C(=N\OC(C)(C)C(=O)[O-])c3nsc(N)n3)[C@H]2SC1	97.2
CN(C)c1cc(NC(=O)CNC(C)(C)C)c(O)c2c1C[C@H]1C[C@H]3[C@H](N(C)C)C(O)=C(C(N)=O)C(=O)[C@@]3(O)C(O)=C1C2=O	112.7
CC(C)(O/N=C(\C(=O)N[C@@H]1C(=O)N2C(C(=O)[O-])=C(C[n+]3ccccc3)CS[C@H]12)c1csc(N)n1)C(=O)O	112.0
CO/N=C(\C(=O)N[C@@H]1C(=O)N2C(C(=O)[O-])=C(C[N+]3(C)CCCC3)CS[C@H]12)c1csc(N)n1 [Cefepime, cefepime]	101.1
C[C@H]1COc2c(N3CCN(C)CC3)c(F)cc3c(=O)c(C(=O)O)cn1c23	105.2
C[C@@H](O)[C@H]1C(=O)N2C(C(=O)O)=C(S[C@@H]3CN[C@H](CNS(N)(=O)=O)C3)[C@H](C)[C@H]12	100.7
CCN1CCN(C(=O)N[C@@H](C(=O)N[C@@H]2C(=O)N3[C@@H]2SC(C)(C)[C@@H]3C(=O)O)c2ccccc2)C(=O)C1=O	84.0
NC(=O)[C@@H]1CC[C@@H]2CN1C(=O)N2OS(=O)(=O)O	100.7
C[C@H]1[C@H](NC(=O)/C(=N\OC(C)(C)C(=O)O)c2csc(N)n2)C(=O)N1S(=O)(=O)O	101.2
C[C@@H]1O[C@@H]1P(=O)(O)O	101.0
C[C@]1(Cn2ccnn2)[C@H](C(=O)O)N2C(=O)C[C@H]2S1(=O)=O	104.1
C[C@@H](O)[C@H]1C(=O)N2C(C(=O)O)=C(S[C@@H]3CN[C@H](C(=O)N(C)C)C3)[C@H](C)[C@H]12	95.5

* * *

- ASSAY_INFO: Long-term storage stability of antibiotics in combination with fosfomycin spiked in plasma/CAMHB (−30 °C, −80 °C)
- Assay type: physicochemical
- EXPERIMENTAL_SETUP: plasma, combination with fosfomycin, 4 weeks at -80 °C; LQC (nominal as E13)
REPORTED_PROPERTY: Mean accuracy (%), Table S14

C[C@@H]1O[C@@H]1P(=O)(O)O [Fosfomycin, fosfomycin]	100.8
C[C@@H](O)[C@H]1C(=O)N2C(C(=O)O)=C(S[C@@H]3CN[C@H](C(=O)N(C)C)C3)[C@H](C)[C@H]12 [Meropenem, meropenem]	101.8
CCN1CCN(C(=O)N[C@@H](C(=O)N[C@@H]2C(=O)N3[C@@H]2SC(C)(C)[C@@H]3C(=O)O)c2ccccc2)C(=O)C1=O [Piperacillin, piperacillin]	111.6
CO/N=C(\C(=O)N[C@@H]1C(=O)N2C(C(=O)[O-])=C(C[N+]3(C)CCCC3)CS[C@H]12)c1csc(N)n1 [Cefepime, cefepime]	111.6
C[C@]1(Cn2ccnn2)[C@H](C(=O)O)N2C(=O)C[C@H]2S1(=O)=O [Tazobactam, tazobactam]	100.7
CN(C)c1cc(NC(=O)CNC(C)(C)C)c(O)c2c1C[C@H]1C[C@H]3[C@H](N(C)C)C(O)=C(C(N)=O)C(=O)[C@@]3(O)C(O)=C1C2=O [Tigecycline, tigecycline]	96.9
C[C@@H](O)[C@H]1C(=O)N2C(C(=O)O)=C(S[C@@H]3CN[C@H](CNS(N)(=O)=O)C3)[C@H](C)[C@H]12 [Doripenem, doripenem]	99.2

* * *

- ASSAY_INFO: Long-term storage stability of antibiotics in combination with fosfomycin spiked in plasma/CAMHB (−30 °C, −80 °C)
- Type: physicochemical
- EXPERIMENTAL_SETUP: CAMHB, combination with fosfomycin, 2 weeks at -80 °C; MQC (nominal as E14)
REPORTED_PROPERTY: Mean accuracy (%), Table S17

CO/N=C(\C(=O)N[C@@H]1C(=O)N2C(C(=O)[O-])=C(C[N+]3(C)CCCC3)CS[C@H]12)c1csc(N)n1 [Cefepime, cefepime]	98.7
C[C@@H](O)[C@H]1C(=O)N2C(C(=O)O)=C(S[C@@H]3CN[C@H](C(=O)N(C)C)C3)[C@H](C)[C@H]12 [Meropenem, meropenem]	97.3
C[C@]1(Cn2ccnn2)[C@H](C(=O)O)N2C(=O)C[C@H]2S1(=O)=O [Tazobactam, tazobactam]	103.7
C[C@H]1[C@H](NC(=O)/C(=N\OC(C)(C)C(=O)O)c2csc(N)n2)C(=O)N1S(=O)(=O)O [Aztreonam, aztreonam]	95.1
CN(C)c1cc(NC(=O)CNC(C)(C)C)c(O)c2c1C[C@H]1C[C@H]3[C@H](N(C)C)C(O)=C(C(N)=O)C(=O)[C@@]3(O)C(O)=C1C2=O [Tigecycline, tigecycline]	106.1

* * *

- ASSAY_INFO: Long-term storage stability of antibiotics in combination with fosfomycin spiked in plasma/CAMHB (−30 °C, −80 °C)
- Assay type: physicochemical
- EXPERIMENTAL_SETUP: CAMHB, combination with fosfomycin, 2 weeks at -80 °C; LQC (nominal as E13)
REPORTED_PROPERTY: Mean accuracy (%), Table S17

C[C@@H](O)[C@H]1C(=O)N2C(C(=O)O)=C(S[C@@H]3CN[C@H](C(=O)N(C)C)C3)[C@H](C)[C@H]12	104.3
NC(=O)[C@@H]1CC[C@@H]2CN1C(=O)N2OS(=O)(=O)O	101.2
C[C@]1(Cn2ccnn2)[C@H](C(=O)O)N2C(=O)C[C@H]2S1(=O)=O	103.8
C[C@H]1[C@H](NC(=O)/C(=N\OC(C)(C)C(=O)O)c2csc(N)n2)C(=O)N1S(=O)(=O)O	101.3
CCN1CCN(C(=O)N[C@@H](C(=O)N[C@@H]2C(=O)N3[C@@H]2SC(C)(C)[C@@H]3C(=O)O)c2ccccc2)C(=O)C1=O	111.6
CN(C)c1cc(NC(=O)CNC(C)(C)C)c(O)c2c1C[C@H]1C[C@H]3[C@H](N(C)C)C(O)=C(C(N)=O)C(=O)[C@@]3(O)C(O)=C1C2=O	98.9
C[C@@H]1O[C@@H]1P(=O)(O)O	110.6
Cn1c(N)c(NC(=O)NCCN)c[n+]1CC1=C(C(=O)O)N2C(=O)[C@@H](NC(=O)/C(=N\OC(C)(C)C(=O)[O-])c3nsc(N)n3)[C@H]2SC1	91.4
